The measurements presented in this section are drawn from patent US20260242478A1.

# targetOrTestSystem: T1, PSMA Fab
# T1 construct: In the phage ELISA the PSMA Fab was biotinylated and captured on neutravidin coated plates; also called anti-PSMA Fab; 006 PSMA Fab
# assayName: phage ELISA, clonal phage on captured PSMA Fab pre-incubated with PSMA antigen as competitor, anti-M13 HRP detection
Provide the reported Phage binding ELISA signal, Anti-PSMA Fab in presence of PSMA of each item.
Give bare numbers.

# count of solved cases: 6
ENHYCRPAWMCNGF [Phage-3393] = 0.106
ITVICKPAWMCEFL [Phage-3394] = 0.0613
QFLVCKPSWMCNGF [Phage-3402] = 0.0882
FRDYCVPPWMCVGM [Phage-3401] = 0.0791
TQALCKPAWMCKGF [Phage-3399] = 0.0703
VERYCVPQWMCDGF [Phage-3403] = 0.117

Hi team, please reply with Phage binding ELISA signal, Anti-PSMA Fab in presence of PSMA for each item in this list.
1. ASVLCVPAWMCSGF [Phage-3395]
2. FGIYCVPEWMCTGL [Phage-3397]
3. TEILCVPEWMCIGL [Phage-3392]
4. GFPWCEPQWMCIGF [Phage-3396]
5. IELMCRPLWMCMGF [Phage-3398]
6. AALRCVPTWMCEGF [Phage-3404]
7. FERLCIPEWMCSAF [Phage-3400]

Response given:
1: 0.0808; 2: 0.0891; 3: 0.0705; 4: 0.114; 5: 0.0966; 6: 0.0793; 7: 0.102
